Values were extracted from patent US20260035345A1.

test: Maximum soluble concentration in artificial tears; assay type: physicochemical; settings: saline or isotonic; artificial tears; read-out: maximum soluble concentration in artificial tears
measured_quantity: solubility

Given CC(=O)SCC(NC(=O)C(C)(C)F)C(=O)O (stereo not shown) , state its recorded solubility.
300 mM

----------
experiment: Maximum soluble concentration in artificial tears; assay type: physicochemical; details: saline or isotonic
measured_quantity: solubility (mM)
Numbers only, in mM.

For the molecule shown here, `CC(C)(F)C(=O)N[C@@H](CS)C(=O)O` , give the reported solubility.
200
